Here the recorded T/C is given for each entry.
tested on: BDF1 mice, Adenocarcinoma 755 s.c., tumor weight T/C; experiment: NCI In Vivo Anticancer Drug Screen. Data for tumor model Adenocarcinoma 755 (subcutaneous) in B6D2F1 (BDF1) mice; conditions: endpoint: mean tumor weight; dose: 8.0 mg/kg/injection; schedule: Q01DX011 (ip); vehicle: carboxymethylcellulose (CMC); higher = larger tumour
Measure name: T/C

>>> result("CCCCn1cnc2c(=S)nc[nH]c21")
"32 % of control"
>>> result("CCN(CC)c1ccc(/C=C/c2ccnc3ccccc23)cc1")
"55 % of control"
>>> result("C=CC(CN1CC1)OC(C)=O (stereo not given)")
"14 % of control"
>>> result("c1ccc(CNc2ncnc3[nH]ncc23)cc1")
"69 % of control"
>>> result("O=P(N1CCCC1)(N1CC1)N1CC1")
"11 % of control"
